Reference source for all entries: patent US5530138A

Biological target: binding of 3H-pirenzepine to brain homogenate of rat (Rattus norvegicus, UniProt P08482)
Construct: from tissue; host or cells: brain of male SD rats, cerebellum removed; supernatant of 1000×g, re-homogenized
Sequence (P08482 whole entry): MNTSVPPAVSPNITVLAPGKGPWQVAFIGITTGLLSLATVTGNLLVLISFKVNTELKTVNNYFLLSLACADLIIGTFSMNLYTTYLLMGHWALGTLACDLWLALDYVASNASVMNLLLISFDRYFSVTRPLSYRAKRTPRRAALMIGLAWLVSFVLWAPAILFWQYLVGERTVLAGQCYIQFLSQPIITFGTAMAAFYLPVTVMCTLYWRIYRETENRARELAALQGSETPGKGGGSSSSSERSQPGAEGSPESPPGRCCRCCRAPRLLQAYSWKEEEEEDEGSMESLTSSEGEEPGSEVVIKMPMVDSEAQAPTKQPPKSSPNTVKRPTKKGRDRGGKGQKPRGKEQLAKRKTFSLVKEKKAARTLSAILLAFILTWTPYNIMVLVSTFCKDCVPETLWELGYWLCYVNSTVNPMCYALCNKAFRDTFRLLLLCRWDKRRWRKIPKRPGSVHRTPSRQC
Test: Inhibition against binding of 3H-pirenzepine to brain homogenate of rat
Conditions: read-out: 50% inhibition (IC50) against binding of 3H-pirenzepine to brain homogenate; 2.0 nM 3H-pirenzepine; rat brain homogenate without cerebellum; 550 mM phosphate buffer pH 7.4; 60 minutes at room temperature
experimental.readout: pIC50
As a rule, pIC50 stands for the negative log10 of the concentration, concentration in M.

Query block: Entry NC(=O)c1ccccc1NCCC12CCCN1CCC2 [Example 33] : reported pIC50 = ?
Result block: 5.95

---

Target: binding of 3H-pirenzepine to brain homogenate of rat (Rattus norvegicus, UniProt P08482)
Construct: from tissue; host or cells: brain of male SD rats, cerebellum removed; supernatant of 1000×g, re-homogenized
Assay: Inhibition against binding of 3H-pirenzepine to brain homogenate of rat
Conditions: 2.0 nM 3H-pirenzepine; rat brain homogenate without cerebellum; 550 mM phosphate buffer pH 7.4; 60 minutes at room temperature; read-out: 50% inhibition (IC50) against binding of 3H-pirenzepine to brain homogenate
experimental.readout: IC50
# answer = value followed by unit

Check out these entries, answers already filled in.
> print(dat)
                                   compound  experimental.readout  recorded.result
1              N#Cc1ccc(NCCC23CCCN2CCC3)cc1                  IC50          4570 nM
2                 Clc1ccccc1NCCC12CCCN1CCC2                  IC50           430 nM
3                 N#Cc1ccccc1NCC12CCCN1CCC2                  IC50           550 nM
4               O=CN(CC12CCCN1CCC2)c1ccccc1                  IC50           300 nM
5  O=[N+]([O-])c1ccccc1NCCC12CCCN1CCC2 [Example 36]                  IC50            90 nM

Now take the following compound into account.
Query block: Entry COc1ccc(N(C)CC23CCCN2CCC3)c2ccccc12 : reported IC50 = ?
Result block: 90 nM

---

Biological target: binding of 3H-pirenzepine to brain homogenate of rat (Rattus norvegicus, UniProt P08482)
Construct: from tissue; host or cells: brain of male SD rats, cerebellum removed; supernatant of 1000×g, re-homogenized
Test: Inhibition against binding of 3H-pirenzepine to brain homogenate of rat
Details: 2.0 nM 3H-pirenzepine; rat brain homogenate without cerebellum; 550 mM phosphate buffer pH 7.4; 60 minutes at room temperature; read-out: 50% inhibition (IC50) against binding of 3H-pirenzepine to brain homogenate
Each record here notes measured IC50.
# answer = value followed by unit

Check out these entries, answers already filled in.
> print(dat)
                                 molecule  recorded.result
1     CN(CC12CCCN1CCC2)c1ccc(Cl)c2ccccc12          0.01 µM
2                Fc1ccccc1NCCC12CCCN1CCC2          1.59 µM
3      CN(CC12CCCN1CCC2)c1ccc(F)c2ccccc12          0.02 µM
4         CN(CC12CCCN1CCC2)c1cccc2ccccc12          0.03 µM
5  O=[N+]([O-])c1cc(F)ccc1NCCC12CCCN1CCC2          0.69 µM

Query block: Entry CN(CCC12CCCN1CCC2)c1ccccc1C#N : reported IC50 = ?
Result block: 0.24 µM

Query block: Entry CN(CC12CCCN1CCC2)c1ccccc1-c1ccccc1 : reported IC50 = ?
Result block: 0.1 µM

Query block: Entry O=[N+]([O-])c1ccccc1NCCC12CCCN1CCC2 [Example 23] : reported IC50 = ?
Result block: 0.1 µM

Query block: Entry N#Cc1ccccc1NCCC12CCCN1CCC2 : reported IC50 = ?
Result block: 0.32 µM

Query block: Entry CN(CCC12CCCN1CCC2)c1ccccc1[N+](=O)[O-] : reported IC50 = ?
Result block: 0.2 µM

Query block: Entry CCN(CC12CCCN1CCC2)c1ccc([N+](=O)[O-])c2ccccc12 : reported IC50 = ?
Result block: 0.2 µM

Query block: Entry C=C1CC2(CCN(C)CC2)OC1C (stereo not shown) [reference compound] : reported IC50 = ?
Result block: 23.6 µM

Query block: Entry CN(CC12CCCN1CCC2)c1ccccc1[N+](=O)[O-] : reported IC50 = ?
Result block: 0.2 µM
